molecular target: Cholecystokinin receptor type A (Cavia porcellus); assay: In vitro smooth muscle contraction activity in guinea pig gall bladder cholecystokinin type A receptor
Sequence (Q63931 whole entry): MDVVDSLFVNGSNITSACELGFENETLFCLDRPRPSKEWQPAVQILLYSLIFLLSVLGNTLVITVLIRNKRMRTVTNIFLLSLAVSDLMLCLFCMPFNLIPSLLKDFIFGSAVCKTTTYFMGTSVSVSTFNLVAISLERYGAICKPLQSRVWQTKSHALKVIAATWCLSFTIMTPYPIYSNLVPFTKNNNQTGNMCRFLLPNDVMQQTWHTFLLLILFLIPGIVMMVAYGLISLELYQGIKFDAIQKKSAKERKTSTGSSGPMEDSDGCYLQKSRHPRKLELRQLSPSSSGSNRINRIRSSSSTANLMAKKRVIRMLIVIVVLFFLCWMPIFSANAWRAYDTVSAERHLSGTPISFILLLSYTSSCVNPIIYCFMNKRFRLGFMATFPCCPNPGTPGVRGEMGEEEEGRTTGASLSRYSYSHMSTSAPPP
recorded-metric: EC50 (nM)

1: CCCC[C@H](NC(=O)[C@H](Cc1ccc(OS(=O)(=O)O)cc1)NC(=O)[C@H](CC(=O)O)NC(C)=O)C(=O)NCC(=O)N[C@@H](Cc1c[nH]c2ccccc12)C(=O)N[C@@H](CCCC)C(=O)N[C@@H](CC(=O)O)C(=O)N(C)[C@@H](Cc1ccccc1)C(N)=O
2: CCCC[C@H](NC(=O)[C@H](Cc1c[nH]c2ccccc12)NC(=O)CNC(=O)[C@H](CCCC)NC(=O)[C@H](Cc1ccc(OS(=O)(=O)O)cc1)N(C)C(=O)[C@H](CC(=O)O)NC(C)=O)C(=O)N[C@@H](CC(=O)O)C(=O)N[C@@H](Cc1ccccc1)C(N)=O
3: CCCC[C@H](NC(=O)[C@H](Cc1c[nH]c2ccccc12)NC(=O)CN(C)C(=O)[C@H](CCCC)NC(=O)[C@H](Cc1ccc(OS(=O)(=O)O)cc1)NC(=O)[C@H](CC(=O)O)NC(C)=O)C(=O)N[C@@H](CC(=O)O)C(=O)N[C@@H](Cc1ccccc1)C(N)=O
4: CCCC[C@H](NC(=O)[C@H](Cc1ccc(OS(=O)(=O)O)cc1)NC(=O)[C@H](CC(=O)O)NC(C)=O)C(=O)NCC(=O)N(C)[C@@H](Cc1c[nH]c2ccccc12)C(=O)N[C@@H](CCCC)C(=O)N[C@@H](CC(=O)O)C(=O)N[C@@H](Cc1ccccc1)C(N)=O
-- ask Provide the items ranked by increasing EC50. I'd appreciate it if you listed the labels in the requested order.
-- reply 3, 2, 1, 4
